Reference for the values: PubChem BioAssay (EPA / NIEHS)

read-out: Signal transducer and activator of transcription 3 (Homo sapiens) (UniProt P40763); test: LTEA_HepaRG_STAT3: Life Technologies and Expression Analysis (LTEA) Assay for Signal transducer and activator of transcription (STAT3) using HepaRG (AID 2283529); settings: mRNA level, 48 h; actives raise or lower the signal
Sequence (P40763 whole entry, looked up): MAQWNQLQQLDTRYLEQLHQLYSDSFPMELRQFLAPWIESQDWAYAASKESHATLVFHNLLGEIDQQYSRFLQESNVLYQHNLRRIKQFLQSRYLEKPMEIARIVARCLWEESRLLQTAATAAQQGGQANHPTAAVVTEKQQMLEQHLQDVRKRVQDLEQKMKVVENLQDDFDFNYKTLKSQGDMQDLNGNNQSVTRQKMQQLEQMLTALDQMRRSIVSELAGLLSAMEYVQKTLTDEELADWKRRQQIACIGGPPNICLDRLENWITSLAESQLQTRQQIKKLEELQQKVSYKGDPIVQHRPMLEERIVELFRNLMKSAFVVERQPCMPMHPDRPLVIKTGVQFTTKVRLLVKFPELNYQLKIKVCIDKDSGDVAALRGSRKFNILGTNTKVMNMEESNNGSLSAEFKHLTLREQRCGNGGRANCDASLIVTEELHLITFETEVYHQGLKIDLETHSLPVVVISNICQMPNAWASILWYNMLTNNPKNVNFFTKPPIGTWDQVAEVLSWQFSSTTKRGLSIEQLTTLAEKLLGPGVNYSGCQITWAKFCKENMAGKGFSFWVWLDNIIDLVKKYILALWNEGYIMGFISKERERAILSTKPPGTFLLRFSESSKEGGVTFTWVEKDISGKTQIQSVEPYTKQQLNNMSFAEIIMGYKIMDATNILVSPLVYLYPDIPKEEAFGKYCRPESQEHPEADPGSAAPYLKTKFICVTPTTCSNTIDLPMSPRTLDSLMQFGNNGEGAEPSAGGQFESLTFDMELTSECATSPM
Activity calls are given as the source filed them. Rule for the calls: active = hit-call score of the fitted dose curve at least 0.9, where 1 is the maximum; inactive = score below 0.9.
Write down the outcome that applies. Available outcomes: True (active), False (inactive)

What call does the record list for CSc1nnc(C(C)(C)C)c(=O)n1N ?
False

What call does the record list for CC(C)N(C(=O)SCC(Cl)=C(Cl)Cl)C(C)C ?
False

What call does the record list for CSc1nc(NC(C)C)nc(NC(C)C)n1 ?
False

What call does the record list for CCOP(=S)(OCC)OC(Cl)C(Cl)(Cl)Cl (configuration not stated) ?
False

What call does the record list for CCc1cccc(C)c1N(C(=O)CCl)C(C)COC (configuration not stated) ?
False

What call does the record list for CSC1=N[C@@](C)(c2ccccc2)C(=O)N1Nc1ccccc1 ?
True

What call does the record list for N#CSCSC#N ?
False

----------
read-out: Tumor necrosis factor (Homo sapiens); test: BSK_LPS_TNFa: BioMAP Diversity Plus: LPS Assay for Tumour Necrosis Factor alpha (TNFa) Biomarker Activity (AID 2283085); conditions: primary human HUVEC with PBMC; actives raise or lower the signal
The source made the active and inactive calls. How the source made its calls: active means hit-call score of the fitted dose curve at least 0.9, where 1 is the maximum; inactive means score below 0.9.
Write down the outcome that applies. Available outcomes: active, inactive

The following molecules have reported results that may help.
What call does the record list for CCOP(=S)(Oc1cnc(C(C)(C)C)nc1)OC(C)C (stereo not drawn) ?
active

What call does the record list for CCOP(=S)(OCC)Oc1ccc([N+](=O)[O-])cc1 ?
inactive

What call does the record list for CC1(C(=O)Nc2ccc(O)c(Cl)c2Cl)CCCCC1 ?
inactive

What call does the record list for CCCCN(CC)c1c([N+](=O)[O-])cc(C(F)(F)F)cc1[N+](=O)[O-] ?
inactive

What call does the record list for CC(=NC#N)N(C)Cc1ccc(Cl)nc1 ?
inactive

***
What call does the record list for CNC(=O)Oc1cccc2c1OC(C)(C)O2 ?
active

What call does the record list for Cc1nn(-c2cc(NS(C)(=O)=O)c(Cl)cc2Cl)c(=O)n1C(F)F ?
inactive

What call does the record list for CCOP(=S)(OCC)Oc1cc(C)nc(C(C)C)n1 ?
active

What call does the record list for N#CSCSC#N ?
active

What call does the record list for CC(C1CC1)C(O)(Cn1cncn1)c1ccc(Cl)cc1 (stereo not drawn) ?
active

What call does the record list for CC(C)=CC1C(C(=O)OCN2C(=O)C3=C(CCCC3)C2=O)C1(C)C (stereo not drawn) ?
active

What call does the record list for CCC(=O)Nc1ccc(Cl)c(Cl)c1 ?
inactive

What call does the record list for COP(=O)(OC)SCn1c(=O)oc2cc(Cl)cnc21 ?
active

----------
read-out: Monokine induced gamma interferon (MIG), CXCL9 (gene 4283); assay: BSK_SAg_MIG: BioMAP Diversity Plus: SAg Assay for Monokine induced gamma interferon (MIG) Biomarker Activity (AID 2283092); details: primary human HUVEC with PBMC; actives raise or lower the signal
The source made the active and inactive calls. The calls were made as follows: active = hit-call score of the fitted dose curve at least 0.9, where 1 is the maximum; inactive = score below 0.9.
metric.name: AC50

Consider the reported AC50 for these compounds:
// lookup AC50 for CCC(=NOC/C=C/Cl)C1=C(O)CC(C2CCOCC2)CC1=O (centres undefined)
inactive

// lookup AC50 for C=C(C)[C@H]1Cc2c(ccc3c2O[C@@H]2COc4cc(OC)c(OC)cc4[C@@H]2C3=O)O1
27.2 µM (active)

// lookup AC50 for CON=C(C(=O)OC)c1ccccc1CON=C(C)c1cccc(C(F)(F)F)c1
8.87 µM (active)

// lookup AC50 for CCOC(=O)CC(SP(=O)(OC)OC)C(=O)OCC (centres undefined)
inactive

// lookup AC50 for CCC(CC)Nc1c([N+](=O)[O-])cc(C)c(C)c1[N+](=O)[O-]
29.5 µM (active)

// lookup AC50 for COc1cc(OC)nc(Sc2cccc(Cl)c2C(=O)O)n1
inactive

***
// lookup AC50 for C#CC(C)(C)NC(=O)c1cc(Cl)cc(Cl)c1
inactive

// lookup AC50 for CN1COCN(Cc2cnc(Cl)s2)C1=N[N+](=O)[O-]
inactive

// lookup AC50 for CNC(=O)Oc1cccc2c1OC(C)(C)O2
inactive
